# test.target: galectin-3 (Homo sapiens, UniProt P17931)
# Construct: gene LGALS3; human recombinant galectin-3 expressed in E. coli
# Sequence (P17931 2-250): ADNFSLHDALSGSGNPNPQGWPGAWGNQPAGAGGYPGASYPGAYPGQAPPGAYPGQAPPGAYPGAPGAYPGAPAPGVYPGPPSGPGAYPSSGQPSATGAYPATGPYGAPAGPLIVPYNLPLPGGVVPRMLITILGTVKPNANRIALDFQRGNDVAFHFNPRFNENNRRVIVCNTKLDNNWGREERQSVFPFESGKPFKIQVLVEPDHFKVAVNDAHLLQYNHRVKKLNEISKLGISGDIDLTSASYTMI
# assay: intrinsic tryptophan fluorescence spectroscopy titration; also competitive ELISA against asialo-fetuin (IC50 […]) and CD
# Type: binding
pKd: −log10 of the molar value.
endpoint.name: pKd

smiles.input | test.target | endpoint.name | numeric.value
C[C@H]1COc2c(N3CCN(C)CC3)c(F)cc3c(=O)c(C(=O)NNc4cccc(N)c4)cn1c23 | galectin-3 (Homo sapiens, UniProt P17931) | pKd | 4.52
